PBM binding z-score listing for selected sequences.
system: LXRa homodimer (NR concentration 270 nM); assay: PBM binding z-score (relative to random genomic background probes); higher = stronger binding; sequences stand for … in GC…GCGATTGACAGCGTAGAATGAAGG
Could you keep your reply to the number by itself?

Answered cases to consult:
sequence	measValue
TAAATGAGGTTAAAGATCAGGGAACGTGGCGTCG	0.629
ATCGAAAGGTCGACGTGGTGAGTATACACCGTTT	0.0877
CGAACGAGGGCATGAGTTGATAGCAAATGCCGAT	-0.654

Proceeding to the next sequence to report its PBM binding z-score.
Enquiry: Which PBM binding z-score is listed for GATACAGGGTCAGCTAGAGGCCGGAGTATGGAAA ?
Return: -0.44

----------
system: LXRb homodimer (NR concentration 270 nM); assay: PBM binding z-score (relative to random genomic background probes); higher = stronger binding; sequences stand for … in GC…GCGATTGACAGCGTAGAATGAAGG
Label scheme for PBM binding z-score: lower than 0.4 is NOT MET, 0.4 and above is MET.

Please review the following examples before continuing.
sequence	assignedLabel
CAGCCTAGGTCAGGCCCAGTATAGGAGGAACGTT	NOT MET
TCTCGGAGGACACGAAGGTCAGAGCGTTCCAGAG	NOT MET
ATATCTAGGTAAAGTTCAGTGAAAGATCGATAGA	MET
AATACAGGCTCATCGTAGGCCAGAGTACGCACAG	NOT MET
ATAGGTAGGTTACATCCGGGTCATTCAGGCTATG	MET
CCTAGCAGGCCAGGGTCACGCAAGCATTTCGCTT	NOT MET
GCAGACGGGTGAAACGCAGGTAACTCAGGGTGGC	NOT MET
GCTATTAGTTGCAAGGGCAACCGAATGATTCTCG	NOT MET

Enquiry: Reported PBM binding z-score reaches at least 0.4 for TCAGACAGGTGAAGGTATCTCAGGTACGCAGTCG ?
Return: NOT MET

Enquiry: Check CGTCCAAGGTCAAGGTCTGTGAAAGAGACTCGAA too.
Return: NOT MET

Enquiry: What do you have for ACTTACGGTTCAACGAGGTTATAGCACGCGTATA ?
Return: MET

Enquiry: Next sequence up: CCAGACAGGTCAGAAGGTAACTCAGCCTCGATTA
Return: NOT MET

Enquiry: Can you handle CTACCAAGGTGAACAGGGTCGTTGATTACTATTC next?
Return: NOT MET

Enquiry: Could you do the same for CCTACTGGTCCAAAAAGGTCATTGATGCCGATAA , please?
Return: MET

Enquiry: Moving on to the next sequence: CGTCCAAGGACAAGGTCAGTGAAAGAGACTCGAA
Return: NOT MET

Enquiry: Next sequence up: CTACCAAGGTGAACAAGGTCGTAGATTACTATTC
Return: NOT MET

Enquiry: Moving on to CCTAGTTGGACAGGAGGTCACACACCGGATATGA
Return: MET

Enquiry: // query: AGAATAAGGTTACCAAAGATCAGGGAAACGCTTG
Return: NOT MET

Enquiry: Can you handle GCGACTGGGGCATCATCAGGTTACCATAACTTAA next?
Return: NOT MET

----------
Listed below: PBM binding z-score values for each entry.
test system: RARg:RXRa (NR concentration 270 nM, RXRa partner concentration 90 nM); assay: PBM binding z-score (relative to random genomic background probes); higher = stronger binding; sequences stand for … in GC…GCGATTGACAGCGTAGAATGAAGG

Example cases with answers are listed next.
sequence	testTarget	PBM binding z-score
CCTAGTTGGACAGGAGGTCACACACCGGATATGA	RARg:RXRa (NR concentration 270 nM, RXRa partner concentration 90 nM)	4.2
CCGAGTATGTTATGGGGCATTCAGGCAACGGTGA	RARg:RXRa (NR concentration 270 nM, RXRa partner concentration 90 nM)	0.112

Next:
Enquiry: Record request: PBM binding z-score value, item CCGACTTGGGCAAGGTTACCATAACGCACAGCCA
Return: 0.796

Reference source for all entries: the supplement of paper PMC6555819
